tested on: Leptinotarsa decemlineata; test: Insecticidal activity against adult Leptinotarsa decemlineata infested potato leaves assessed as mortality at 20 ul after 96 hr relative to control; format: functional
The label depends only on mortality: Fulfilled if it is at least 90%, Not fulfilled if it is smaller.

For orientation, consider the following solved cases.
**Q:** Does the reported mortality for CC(C)=CCC/C(C)=C\CO [NEROL] fall at or above the 90% mark?
**A:** Not fulfilled

**Q:** Does the reported mortality for CC1=CCC2C(C1)C2(C)C (stereo not given) [CARENE] fall at or above the 90% mark?
**A:** Not fulfilled

**Q:** Does the reported mortality for CC(=O)OC/C=C(/C)CCC=C(C)C [NERYL ACETATE] fall at or above the 90% mark?
**A:** Not fulfilled

**Q:** Does the reported mortality for CC12CCC(CC1)C(C)(C)O2 [EUCALYPTOL] fall at or above the 90% mark?
**A:** Fulfilled

**Q:** Does the reported mortality for C=CC(C)(CCC=C(C)C)OC(C)=O (stereo not given) [LINALYL ACETATE] fall at or above the 90% mark?
**A:** Not fulfilled

**Q:** Does the reported mortality for CC(C)=CCC[C@@H](C)CC=O [CITRONELLAL] fall at or above the 90% mark?
**A:** Not fulfilled

***
**Q:** Does the reported mortality for C/C=C(C)/C=C/C=C(C)C [ALLO-OCIMENE] fall at or above the 90% mark?
**A:** Not fulfilled

**Q:** Does the reported mortality for C=C(C)C1CCC2(C)OC2C1 (stereo not given) [LIMONENE OXIDE] fall at or above the 90% mark?
**A:** Not fulfilled

**Q:** Does the reported mortality for C=CC(=C)CCC=C(C)C [MYRCENE] fall at or above the 90% mark?
**A:** Fulfilled

**Q:** Does the reported mortality for CC1=CCC2CC1C2(C)C (stereo not drawn) [ALPHA-PINENE] fall at or above the 90% mark?
**A:** Fulfilled

Hey, just so you know, these numbers are from ChEMBL document CHEMBL3046407.
